Just for reference, paper PMC8419108 is where these values come from.

system.name: KRAS^Q61R/CRAF^WT interaction (Homo sapiens, UniProt P01116+P04049, Q61R)
assay.explanation: NanoBRET assay of Halo-KRAS^Q61R/Nano-CRAF^WT binding in live 293FT cells
pIC50: −log10 of the molar value.

compound	pIC50
CC(C)=CCC[C@]1(C)C=Cc2c(O)c3c(c(CC=C(C)C)c2O1)O[C@]12C(=C[C@@H]4C[C@H]1C(C)(C)O[C@@]2(C/C=C(/C)C(=O)O)C4=O)C3=O [Gambogic acid]	5.77
COc1cc(CCN)c2c(c1OC)SSSSS2 [Varacin]	5.02
CCOc1nc2cccc(C(=O)OC(C)OC(=O)OC3CCCCC3)c2n1Cc1ccc(-c2ccccc2-c2nnn[nH]2)cc1 (centres unmarked) [Candesartan cilexetil]	5.27
C[C@@H]1O[C@@H](O[C@H]2[C@H](O[C@H]3CO[C@@H](O[C@H]4CC[C@]5(C)[C@H]6CC[C@]78OC[C@@]9(CC[C@](C)(C=O)C[C@H]97)[C@H](O)C[C@@]8(C)[C@]6(C)CC[C@H]5C4(C)C)[C@H](O[C@@H]4O[C@H](CO)[C@@H](O)[C@H](O)[C@H]4O)[C@H]3O)O[C@H](CO)[C@@H](O)[C@@H]2O)[C@H](O)[C@H](O)[C@H]1O [Ardisiacrispin B]	5.30
CN1C(=O)[C@]2(Cc3cn([C@]45C[C@@]67SS[C@@](CO)(C(=O)N6[C@H]4Nc4ccccc45)N(C)C7=O)c4ccccc34)SS[C@@]1(CO)C(=O)N2C [Chetomin]	5.54
